Entries and their measured pIC50 follow.
- target.system: UniProt:O14939
- Sequence (O14939 whole entry): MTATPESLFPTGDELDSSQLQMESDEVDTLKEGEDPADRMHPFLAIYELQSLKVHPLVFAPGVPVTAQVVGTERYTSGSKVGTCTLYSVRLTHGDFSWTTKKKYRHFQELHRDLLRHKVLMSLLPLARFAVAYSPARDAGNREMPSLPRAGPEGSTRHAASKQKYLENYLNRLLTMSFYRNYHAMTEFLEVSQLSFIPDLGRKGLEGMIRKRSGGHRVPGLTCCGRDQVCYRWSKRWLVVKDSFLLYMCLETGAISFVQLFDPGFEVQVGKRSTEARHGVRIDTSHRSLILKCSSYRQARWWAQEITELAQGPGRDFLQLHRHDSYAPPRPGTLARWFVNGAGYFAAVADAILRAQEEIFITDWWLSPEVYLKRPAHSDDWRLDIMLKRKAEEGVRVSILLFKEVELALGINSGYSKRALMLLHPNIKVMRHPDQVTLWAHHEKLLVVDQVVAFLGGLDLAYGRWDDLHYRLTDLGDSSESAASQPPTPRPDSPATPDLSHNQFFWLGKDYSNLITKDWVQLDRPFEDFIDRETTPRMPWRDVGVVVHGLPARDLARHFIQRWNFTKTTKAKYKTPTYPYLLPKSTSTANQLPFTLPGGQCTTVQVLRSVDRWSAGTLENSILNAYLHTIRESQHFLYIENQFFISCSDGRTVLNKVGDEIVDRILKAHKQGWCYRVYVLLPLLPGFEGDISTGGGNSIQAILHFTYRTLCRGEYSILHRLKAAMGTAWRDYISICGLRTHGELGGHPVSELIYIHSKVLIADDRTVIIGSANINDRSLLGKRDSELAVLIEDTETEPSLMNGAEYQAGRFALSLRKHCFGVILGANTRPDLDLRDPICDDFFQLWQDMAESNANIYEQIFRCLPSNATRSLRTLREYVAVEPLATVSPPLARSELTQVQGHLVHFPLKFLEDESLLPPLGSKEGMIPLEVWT
- experiment.description: Evaluation of human PLD2 enzyme inhibitory activity (Amplex Red / choline oxidase fluorescence)
- Assay type: biochemical
- measurement.parameters: full-length human PLD2 enzyme; read-out: PLD2 IC50
pIC50: −log10 of the molar value.

• C[C@@H](C[C@H]1CC[C@]2(CC1)OC(=O)NN=C2c1ccc(C#N)cc1Br)NC(=O)c1cc(Cl)no1 = > 8.00

Input: Short answer please: pIC50, UniProt:O14939, entry CNC(=O)C(=O)N[C@@H](C)C[C@H]1CC[C@]2(CC1)OC(=O)NN=C2c1cnc(N2CC3CCC(C2)O3)cc1Cl
Output: > 8.00

Input: Query for UniProt:O14939: what pIC50 does the record show for C[C@@H](C[C@H]1CC[C@]2(CC1)OC(=O)NN=C2c1cnc(C2CC2)cc1Cl)NC(=O)N1CCn2nccc2C1 ?
Output: > 8.00

Cited source for all entries: patent US20240101572A1
